B1: TPR t1 (parent)
chain: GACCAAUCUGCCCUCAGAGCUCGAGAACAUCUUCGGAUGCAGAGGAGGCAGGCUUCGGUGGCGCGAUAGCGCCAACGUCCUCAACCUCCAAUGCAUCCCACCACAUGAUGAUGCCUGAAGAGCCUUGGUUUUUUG

Variants of: B1
Experiment: polymerase ribozyme fitness, log enrichment relative to wild type (log ratio); higher = more active; in vitro selection for triplet polymerase activity
If the reported polymerase ribozyme fitness (log ratio) equals or exceeds -3, assign y. If not, assign n.

INSERT INTO results (residues, class) VALUES
  ('GACCAAUCUGCCCUCAGAGCUCGAGAACAUCUUCGGAUGCAGAGGAGGCAGGCUUCGGUGGCGCGAUAAUGCCAACGUCCUCAACCUCCAAUGCAUCCCACCACAUGAUGAUGCCUGAAGAGCAUUGGUUUUUUG', 'n'),
  ('GACCAAUCUGCCCUCAGAGCUCGAGAACAUCUUCGGAUGCAGAGGAGGCAGGGUUCGGUGGCACGAUAGCGCCAACGUCCUCAACCUCCAAUGCAUCCCACCACAUGAUGAUGCCUGAAGAGCCUUGGUUUUUUG', 'y'),
  ('GACCAAUCUGCCCUCAGAGCUCGAGAACAUCUUCGGAUGCAGAGGAGGCAGGCUUCGGUGGCGAGAUAGCGCCAACGUCCUCAACAUCCAAUGCAUCCCACCACAUGAUGAGGCCUGAAGAGCCUUGGUUUUUUG', 'n'),
  ('GACCAAUCUGCCCUCAGAGCUCGAGAACAUCUUCGGAUGCAGAGGAGGCAGGCUUCGGUGGCGCGAUAGCGCCAACGUCCUCAACCUCCAAUGCAUCCCACCACAUGAUGAUGCCUGAAGAGCCUUGGCUUUUUU', 'y'),
  ('GACCAAUCUGCCCUCAGAGCUCGAGAACAUCUUCGGAUGCAGAGGAGGCAGGCUUCGGUGGCGCGAUAGCGCCAACGUCCUCAACCUCCAAUGCAUCCCAUCACAUGAUGAUGCCUGAAGAGCCUUGGAUUUUUG', 'y'),
  ('GACCAAUCUGCCCUCAGAGCUCGAGAACAUCUUCGGAUGGAGAGGAGGCAGGUUUCGGUGGCGCGAUAGCGCCAACGUCCUCAACCUCCAAUGCAUCCCACCACAUGAUGAUGCCUGAAGCGCCUUGGUUUUUUG', 'y'),
  ('GACCAAUCUGCCCUCAGAGAUCGAGAACAUCUUCGGAUGCAGAGGAGGCAGGCUUCGGUGGCGCGAUAGCGCCAACGUCCUCAACCUCCAAUGCAUCCCACCACAUGAUGAUGCCUGAAGAGCAUUGGUUUUUUG', 'y'),
  ('GACCAAUUUGCCCUCAGAGCUCGAGAACUUCUUCGGAUGCAGAGGAGGCAGGCUUCGGCGGCGCGAUAGCGCCAACGUCCUCAACCUCCAAUGCAUCCCACCACAUGAUGAUGCCUGAAGGGCCUUGGUUUUUUG', 'y'),
  ('GACCAAUCUGCCCUCAGAGCUCGAGAACAUCUUCGGAUGCAGAGGAGCCAGGCUUCGGUGGCGCGAUAGCGCCAACGUCCUCAACCUCCAAUGCAUCCCACCACAUGAUGAUGCCUGAAGAGCCUUGAUUUUUUG', 'n'),
  ('GACCAAUCUGCCCUCAGAGCUCGAGAACAUCUUCGGAUGCAGAGGAGGCAGGCUUCGGUGGUGUGAUAGCGCCAACGUCCUCAACCUCCAAUGCAUCCCACCACAUGAUGAUGCCUGAAGAGACUUGAUUUUUUG', 'y'),
  ('GACCAAUCUGCCUUCAGAGCUCGAGAACAUCUUAGGAUGCAGAGGAGGCAGGCUUCGGUGGCGCGAUAGAGCCAACGUCCUCAACCUCCAAUGCAUCCCACCACAAGAUGAUGACUGAAGAGCCUUGGUUUUUUG', 'n'),
  ('GACCUAUCUGCCCUCAGAGCUCGAGAACAUCUUCGGAUGCAGAGGAGUCAGGCUUCGGUGGCGCGAUAGCGCCAACGUCCUCAACCUCCAAUGCAUCCCACCACAUGAUGAUGCCUGAAGAGCCUUGGUUUUUUG', 'y'),
  ('GACCAAUCUGCCCUCAGAGCUCGAGAACAUCUUCGGAUGCAGAGGAGGCAGGCUCCGGUGGCGCGAUAGCGCCAACGUCCUCAACCUCCAAUGCAUCCCACCACAGGAUGAUGCCUGAAGAGCCUUGGUUUUUUG', 'y'),
  ('GACCAAUCUGCCCUCAGAGCUCGAGAACAUCUUCGGAUGCAGAGGAGGCAGGCUUCGGUGUCGCGAUAGCGCCAACGUCCUCCACCUCGAAUGCAUCCCACCACAUGAUGAUGCCUGAAGAGCCUUGGUUUUUUG', 'y'),
  ('GACCAAUCUGCCCUCAGAGCUCGAGAACAUCUUCGGUUGCAGAGGAGGCAGGCUUCGGUGGCGCGAUAGCGCCAACGUCCUGAACCUCCAAUGCAUCCCACCACAUGAUGAUGCCUGAAGAGCCUUGGUUUUUUG', 'y'),
  ('GACCAAUCUGCCCUCAGAGCUCGAGAACAUCUUCGGAUGUAGAGGAGGCAGUCUUCGGUGGCGCGAUAGCGCCAACGUCCUCAACCUCCAAUGCAGCCCACCACUUGAUGAUGCCUGAAAAGCCUUGCUUGUUUG', 'n'),
  ('GACCAGUCUGCCCUCAGAGCUCGAGAACAUCUUCGGAUGCAGAGGAGUCAGGCUUCGGUGGCACGAUAGCGCCAACGUCCUCAACCUCCAAUGCAUCCCACCACAUGAUGAUGCCUGAAGAGCCUUGGUUUUUUG', 'y'),
  ('GACGAAUGUGACCGCAGAGCUCGAGAACAUCUUCGGAUGCAGAGGAGGCAGGCUUCGGUGGCGCGAUAGCGCCAACGUCCUCAACCUCCAAUGCAUCCCACCACAUGAUGAUGCCUGAAGAGCUUUGGUUUUUUG', 'y'),
  ('GACCAAUCUGCCCUCAGAGCUUGAGAACAUCUUCGGAUGCAGAGGAGGCAGGCUUCGGUGGCGUGAUAGCGCCAACAUCCUCAACCUCCAAUGCAUCCCACCACAUGAUGAUGCCUGAAGAGCCUUGGUUUUUUG', 'n'),
  ('GACCAAUCUGCCCGCAGAGCUCGAGAACAUCUUCGGAUACAGAGGAGGCAGGCUUCGGUGGCGCGAUAGCGCCAACGUCCUCAAUCUCCAAUGCAUCCCACCACAUGAUGAUGCCUAAAGAGCCUUGGUUUUUUG', 'n'),
  ('GACCAAUCUGCCCUCAGAGCUCGAGAACAUCUUCGGAUGCAGAGGUGGCAGGCUUCGGUGGCGCGAUAGCGCCAACGUCCUCAACCUCCAGUGCAUCCCACCACAUGAUGAUGCCUGAAGAGGCUUGGUUUUUUG', 'y'),
  ('GACCAAUCUGCCCUCAGAGCUCGAGAACAUCUUCGGAUGCAGAGGAGGCAGGCUUCGGUGGCGCGUUAGCGCCAACGUCCUCAACCUCCAAUACAUCCCACCACAUGAUGAUGCCUGAAGGGCCUUGGUUUUUUG', 'y'),
  ('GACCAAUCGGCCCUCAGAGAUCGAGAACAUCUUCGGAUGCAGAGGAGGCAGGCUUCGGUGGCGCGAUAGCGCCAACGUCCUCAACCUCCAAUGCAUCCCACCACAUGAUGAUGCCUGAAGAGCCUUGGUUAUUUG', 'y');
